# System: Homo sapiens
# protocol: Inhibition of LPS-induced NF-kappaB (unknown origin) transactivation expressed in human SW480 cells at 10 uM administered 1 hr after LPS stimulation measured after 6 hrs by luciferase reporter gene assay relative to control
# Format: cell-based
Provide the recorded inhibition for the entries that follow.
Your answer is read as %, so omit the unit and give the number.

The molecule CC(C)=CCc1cc([C@@H]2CC(=O)c3ccc4c(c3O2)C=CC(C)(C)O4)ccc1O , tested on Homo sapiens, showed inhibition of 15.5

The molecule CC(C)=CCc1c(O)ccc([C@@H]2COc3c(ccc4c3C=CC(C)(C)O4)C2)c1O , tested on Homo sapiens, showed inhibition of 13.3

The molecule CC1(C)C=Cc2cc3cc(-c4ccc(O)cc4O)c(=O)oc3cc2O1 , tested on Homo sapiens, showed inhibition of 0

The molecule CC(C)=CCc1cc([C@H]2Oc3cc(O)ccc3C[C@H]2O)ccc1O , tested on Homo sapiens, showed inhibition of 9.8

The molecule CC1(C)C=Cc2cc3c(cc2O1)OCC(c1ccc(O)c2c1OC(C)(C)C=C2)=C3 , tested on Homo sapiens, showed inhibition of 0

The molecule CC(C)=CCc1c(O)ccc2c1OC[C@@H](c1ccc3c(c1O)C=CC(C)(C)O3)C2 , tested on Homo sapiens, showed inhibition of 40.2

The molecule CC(C)=CCc1c(O)ccc([C@@H]2COc3c(ccc(O)c3CC=C(C)C)C2)c1O , tested on Homo sapiens, showed inhibition of 32.9

The molecule CC(C)=CCc1cc(C[C@@H](O)C(=O)c2cc(CC=C(C)C)c(O)cc2O)ccc1O , tested on Homo sapiens, showed inhibition of 24.3

The molecule CC1(C)C=Cc2c(ccc([C@@H]3COc4c(ccc5c4C=CC(C)(C)O5)C3)c2O)O1 , tested on Homo sapiens, showed inhibition of 0

###

# System: A549
# protocol: Antiproliferative activity against human A549 cells at 10 uM after 24 hrs by MTS assay relative to control
# Assay type: functional
# recorded_conditions: A549, 24 h
measure_name: inhibition at 10 µM (%)
Your answer is read as %, so omit the unit and give the number.

The molecule CC1(C)C=Cc2c(ccc(-c3cc4ccc(O)cc4o3)c2O)O1 showed inhibition at 10 µM equal to 14.4

The molecule CC1(C)C=Cc2c(O)ccc(-c3cc4ccc(O)cc4o3)c2O1 showed inhibition at 10 µM equal to 6.5

The molecule CC1(C)C=Cc2c(ccc([C@@H]3COc4c(ccc5c4C=CC(C)(C)O5)C3)c2O)O1 [HISPAGLABRIDIN B] showed inhibition at 10 µM equal to 34.3

The molecule CC1(C)C=Cc2c(ccc(-c3oc4cc(O)ccc4c3C=O)c2O)O1 showed inhibition at 10 µM equal to 7.9

The molecule CCc1c2c(nc3ccc(OC(=O)N4CCC(N5CCCCC5)CC4)cc13)-c1cc3c(c(=O)n1C2)COC(=O)[C@]3(O)CC [IRINOTECAN] showed inhibition at 10 µM equal to 91.8

###

# target_or_test_system: Tyrosinase (Homo sapiens);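 also: tyrosinase of unspecified origin acting on L-tyrosine, compound preincubated with enzyme for 15 min before adding substrate, inhibition expressed versus control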
# recorded_conditions: at 10 µM
# Description: Inhibition of tyrosinase (unknown origin) using L-tyrosine as substrate at 10 uM preincubated for 15 mins followed by substrate addition relative to control
measure_name: inhibition (%)
Your answer is read as %, so omit the unit and give the number.

The compound CC(C)=CCc1cc(C[C@@H](O)C(=O)c2ccc(O)c(CC=C(C)C)c2O)ccc1O showed inhibition equal to 0

The compound CC(C)=CCc1cc(/C=C/C(=O)c2ccc(O)cc2O)ccc1O showed inhibition equal to 22.6

The compound CC1(C)C=Cc2cc3c(cc2O1)OCC(c1ccc(O)c2c1OC(C)(C)C=C2)=C3 showed inhibition equal to 1.3

The compound CC1(C)C=Cc2c(ccc3c(=O)c(-c4ccc(O)cc4O)coc23)O1 showed inhibition equal to 1

The compound CC(C)=CCc1c(O)cc(O)c2c(=O)c(-c3ccc(O)cc3O)coc12 showed inhibition equal to 49.6

The compound CC1(C)C=Cc2c(cc(O)c3c2OCC(c2ccc(O)cc2O)C3=O)O1 (stereo not given) showed inhibition equal to 35.6

The compound CC1(C)C=Cc2cc3cc(-c4ccc(O)cc4O)c(=O)oc3cc2O1 showed inhibition equal to 84

The compound CC(C)=CCc1c(O)cc(O)c2c(=O)c(-c3ccc(O)cc3)coc12 showed inhibition equal to 1.6

The compound CC1(C)C=Cc2c(O)ccc(C3=Cc4ccc(O)cc4OC3)c2O1 showed inhibition equal to 76.6

The compound CC1(C)C=Cc2cc(/C=C/C(=O)c3ccc(O)cc3O)ccc2O1 showed inhibition equal to 4.4

###

# target_or_test_system: Tyrosine-protein phosphatase non-receptor type 1 (Homo sapiens) (UniProt P18031);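 also: recombinant enzyme assay with pNPP substrate, inhibition read after 30 min versus untreated control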
# Sequence (whole entry): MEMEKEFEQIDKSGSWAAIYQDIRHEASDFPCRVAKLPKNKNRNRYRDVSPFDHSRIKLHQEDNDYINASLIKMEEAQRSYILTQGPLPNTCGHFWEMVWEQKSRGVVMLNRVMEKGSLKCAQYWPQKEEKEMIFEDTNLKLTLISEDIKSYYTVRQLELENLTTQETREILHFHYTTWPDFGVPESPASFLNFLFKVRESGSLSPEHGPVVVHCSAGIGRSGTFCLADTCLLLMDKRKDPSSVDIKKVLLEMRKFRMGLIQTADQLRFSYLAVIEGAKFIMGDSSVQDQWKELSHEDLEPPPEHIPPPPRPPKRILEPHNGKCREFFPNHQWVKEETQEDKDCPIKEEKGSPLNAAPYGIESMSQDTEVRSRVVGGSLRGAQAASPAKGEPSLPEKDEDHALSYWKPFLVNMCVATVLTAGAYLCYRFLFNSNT
# recorded_conditions: at 10 µM
# Description: Inhibition of recombinant human PTP1B using pNPP as substrate at 10 uM after 30 mins relative to control
Provide the recorded inhibition for the entries that follow.
Your answer is read as %, so omit the unit and give the number.

The molecule O=C1C[C@@H](c2ccc(O)cc2)Oc2cc(O)cc(O)c21 [NARINGENIN] , tested on Tyrosine-protein phosphatase non-receptor type 1 (Homo sapiens) (UniProt P18031), showed inhibition of 4.1

The molecule CC1(C)C=Cc2c(ccc3c2OC[C@@H](c2ccc(O)cc2O)C3)O1 [GLABRIDIN] , tested on Tyrosine-protein phosphatase non-receptor type 1 (Homo sapiens) (UniProt P18031), showed inhibition of 3.6

The molecule CC(C)=CCc1cc(C[C@@H](O)C(=O)c2ccc(O)c(CC=C(C)C)c2O)ccc1O , tested on Tyrosine-protein phosphatase non-receptor type 1 (Homo sapiens) (UniProt P18031), showed inhibition of 37.7

The molecule CC1(C)C=Cc2cc([C@@H]3CC(=O)c4ccc5c(c4O3)C=CC(C)(C)O5)ccc2O1 [XAMBIOONA] , tested on Tyrosine-protein phosphatase non-receptor type 1 (Homo sapiens) (UniProt P18031), showed inhibition of 76.9

The molecule CC(C)=CCc1c(O)cc(O)c2c(=O)c(-c3ccc(O)cc3)coc12 , tested on Tyrosine-protein phosphatase non-receptor type 1 (Homo sapiens) (UniProt P18031), showed inhibition of 10.6

The molecule O=C1C[C@@H](c2ccc(O)cc2)Oc2cc(O)ccc21 [LIQUIRTIGENIN] , tested on Tyrosine-protein phosphatase non-receptor type 1 (Homo sapiens) (UniProt P18031), showed inhibition of 9.8

The molecule O=C(/C=C/c1ccc(O)cc1)c1ccc(O)cc1O [ISOLIQUIRITIGENIN] , tested on Tyrosine-protein phosphatase non-receptor type 1 (Homo sapiens) (UniProt P18031), showed inhibition of 14.2

The molecule CC1(C)C=Cc2c(ccc3c2OC[C@H]2c4ccc(O)cc4O[C@@H]32)O1 [SHINPTEROCARPIN] , tested on Tyrosine-protein phosphatase non-receptor type 1 (Homo sapiens) (UniProt P18031), showed inhibition of 13.3

The molecule COc1ccc(C2(O)COc3c(ccc(O)c3CC=C(C)C)C2=O)c(O)c1 (stereo not drawn) , tested on Tyrosine-protein phosphatase non-receptor type 1 (Homo sapiens) (UniProt P18031), showed inhibition of 10.1

The molecule CC(C)=CCc1cc(C[C@@H](O)C(=O)c2ccc(O)cc2O)ccc1O , tested on Tyrosine-protein phosphatase non-receptor type 1 (Homo sapiens) (UniProt P18031), showed inhibition of 0.2

The molecule CC(C)=CCc1c(O)ccc([C@@H]2COc3c(ccc(O)c3CC=C(C)C)C2)c1O [KANZONOL X] , tested on Tyrosine-protein phosphatase non-receptor type 1 (Homo sapiens) (UniProt P18031), showed inhibition of 15.7

The molecule CC1(C)C=Cc2c(ccc(-c3cc4ccc(O)cc4o3)c2O)O1 , tested on Tyrosine-protein phosphatase non-receptor type 1 (Homo sapiens) (UniProt P18031), showed inhibition of 22.8

The molecule CC(C)=CCc1cc([C@H]2Oc3c(ccc4c3C=CC(C)(C)O4)C(=O)[C@@H]2O)ccc1O , tested on Tyrosine-protein phosphatase non-receptor type 1 (Homo sapiens) (UniProt P18031), showed inhibition of 10.6

The molecule CC1(C)C=Cc2c(ccc3c(=O)c(-c4ccc(O)cc4O)coc23)O1 , tested on Tyrosine-protein phosphatase non-receptor type 1 (Homo sapiens) (UniProt P18031), showed inhibition of 6

The molecule CC1(C)C=Cc2c(O)ccc(-c3cc4ccc(O)cc4o3)c2O1 , tested on Tyrosine-protein phosphatase non-receptor type 1 (Homo sapiens) (UniProt P18031), showed inhibition of 1.3

The molecule CC(C)=CCc1cc([C@@H]2CC(=O)c3ccc4c(c3O2)C=CC(C)(C)O4)ccc1O [SHINFLAVANONE] , tested on Tyrosine-protein phosphatase non-receptor type 1 (Homo sapiens) (UniProt P18031), showed inhibition of 62.6

The molecule C=CC(C)(C)c1cc(/C=C/C(=O)c2ccc(O)cc2)c(OC)cc1O [LICOAGROCHACONE A] , tested on Tyrosine-protein phosphatase non-receptor type 1 (Homo sapiens) (UniProt P18031), showed inhibition of 14.5

The molecule CC1(C)C=Cc2c(cc(O)c3c(=O)c(-c4ccc(O)cc4O)coc23)O1 , tested on Tyrosine-protein phosphatase non-receptor type 1 (Homo sapiens) (UniProt P18031), showed inhibition of 57.6

The molecule CC1(C)C=Cc2c(ccc3c2O[C@H]2c4ccc(O)cc4OC[C@@H]32)O1 [PHASEOLIN] , tested on Tyrosine-protein phosphatase non-receptor type 1 (Homo sapiens) (UniProt P18031), showed inhibition of 9.5

The molecule CC(C)=CCc1cc(/C=C/C(=O)c2ccc3c(c2O)C=CC(C)(C)O3)ccc1O , tested on Tyrosine-protein phosphatase non-receptor type 1 (Homo sapiens) (UniProt P18031), showed inhibition of 84.5

The molecule CC(C)=CCc1cc([C@H]2Oc3cc(O)ccc3C[C@H]2O)ccc1O , tested on Tyrosine-protein phosphatase non-receptor type 1 (Homo sapiens) (UniProt P18031), showed inhibition of 10.4

The molecule CC(C)=CCc1cc([C@@H]2CC(=O)c3ccc(O)cc3O2)ccc1O [ABYSSINONE II] , tested on Tyrosine-protein phosphatase non-receptor type 1 (Homo sapiens) (UniProt P18031), showed inhibition of 4.2

The molecule COc1ccc(-c2coc3cc(O)ccc3c2=O)cc1 [FORMONONETIN] , tested on Tyrosine-protein phosphatase non-receptor type 1 (Homo sapiens) (UniProt P18031), showed inhibition of 9.9

The molecule CC(C)=CCc1c(O)ccc(C(=O)/C=C/c2cc(O)c3c(c2)C=CC(C)(C)O3)c1O , tested on Tyrosine-protein phosphatase non-receptor type 1 (Homo sapiens) (UniProt P18031), showed inhibition of 47.1

The molecule CC1(C)C=Cc2c(ccc3c(=O)c(Oc4ccc(O)cc4O)coc23)O1 , tested on Tyrosine-protein phosphatase non-receptor type 1 (Homo sapiens) (UniProt P18031), showed inhibition of 12.8

The molecule CC1(C)C=Cc2c(ccc3c2OCC(c2ccc(O)cc2O)=C3)O1 , tested on Tyrosine-protein phosphatase non-receptor type 1 (Homo sapiens) (UniProt P18031), showed inhibition of 6.1

The molecule COc1ccc([C@@H]2COc3c(ccc(O)c3CC=C(C)C)C2)c(O)c1O , tested on Tyrosine-protein phosphatase non-receptor type 1 (Homo sapiens) (UniProt P18031), showed inhibition of 80

The molecule CC1(C)C=Cc2c(ccc(-c3coc4cc(O)ccc4c3=O)c2O)O1 [GLABRONE] , tested on Tyrosine-protein phosphatase non-receptor type 1 (Homo sapiens) (UniProt P18031), showed inhibition of 0.3

The molecule CC1(C)C=Cc2c(O)ccc(C3=Cc4ccc(O)cc4OC3)c2O1 [GLABRENE] , tested on Tyrosine-protein phosphatase non-receptor type 1 (Homo sapiens) (UniProt P18031), showed inhibition of 7.1

The molecule COc1ccc2c(c1)O[C@H]1c3ccc(O)c(CC=C(C)C)c3OC[C@@H]21 [LICOAGROCARPIN] , tested on Tyrosine-protein phosphatase non-receptor type 1 (Homo sapiens) (UniProt P18031), showed inhibition of 4.9

The molecule CC(C)=CCc1c(O)ccc2c1OC[C@@H](c1ccc3c(c1O)C=CC(C)(C)O3)C2 , tested on Tyrosine-protein phosphatase non-receptor type 1 (Homo sapiens) (UniProt P18031), showed inhibition of 5.5

The molecule CC(C)=CCc1c(O)ccc([C@@H]2COc3c(ccc4c3C=CC(C)(C)O4)C2)c1O [HISPAGLABRIDIN A] , tested on Tyrosine-protein phosphatase non-receptor type 1 (Homo sapiens) (UniProt P18031), showed inhibition of 80.3

The molecule CC(C)=CCc1cc([C@@H]2CC(=O)c3ccc(O)c(CC=C(C)C)c3O2)ccc1O [GLABROL] , tested on Tyrosine-protein phosphatase non-receptor type 1 (Homo sapiens) (UniProt P18031), showed inhibition of 65.1

The molecule CC(C)=CCc1cc(/C=C/C(=O)c2ccc(O)cc2O)ccc1O [LICOAGROCHALCONE A] , tested on Tyrosine-protein phosphatase non-receptor type 1 (Homo sapiens) (UniProt P18031), showed inhibition of 17.2

The molecule CC1(C)C=Cc2c(ccc3cc(-c4ccc(O)cc4O)oc23)O1 , tested on Tyrosine-protein phosphatase non-receptor type 1 (Homo sapiens) (UniProt P18031), showed inhibition of 73.1

The molecule CC1(C)C=Cc2c(cc(O)c3c2OCC(c2ccc(O)cc2O)C3=O)O1 (stereo not drawn) , tested on Tyrosine-protein phosphatase non-receptor type 1 (Homo sapiens) (UniProt P18031), showed inhibition of 58.5

The molecule CC1(C)C=Cc2c(ccc(-c3oc4cc(O)ccc4c3C=O)c2O)O1 , tested on Tyrosine-protein phosphatase non-receptor type 1 (Homo sapiens) (UniProt P18031), showed inhibition of 9.3

The molecule CC(C)=CCc1c(O)cc(O)c2c(=O)c(-c3ccc(O)cc3O)coc12 , tested on Tyrosine-protein phosphatase non-receptor type 1 (Homo sapiens) (UniProt P18031), showed inhibition of 18.2
